Target: BCRP (Homo sapiens)
Sequence (Q9UNQ0 1-655): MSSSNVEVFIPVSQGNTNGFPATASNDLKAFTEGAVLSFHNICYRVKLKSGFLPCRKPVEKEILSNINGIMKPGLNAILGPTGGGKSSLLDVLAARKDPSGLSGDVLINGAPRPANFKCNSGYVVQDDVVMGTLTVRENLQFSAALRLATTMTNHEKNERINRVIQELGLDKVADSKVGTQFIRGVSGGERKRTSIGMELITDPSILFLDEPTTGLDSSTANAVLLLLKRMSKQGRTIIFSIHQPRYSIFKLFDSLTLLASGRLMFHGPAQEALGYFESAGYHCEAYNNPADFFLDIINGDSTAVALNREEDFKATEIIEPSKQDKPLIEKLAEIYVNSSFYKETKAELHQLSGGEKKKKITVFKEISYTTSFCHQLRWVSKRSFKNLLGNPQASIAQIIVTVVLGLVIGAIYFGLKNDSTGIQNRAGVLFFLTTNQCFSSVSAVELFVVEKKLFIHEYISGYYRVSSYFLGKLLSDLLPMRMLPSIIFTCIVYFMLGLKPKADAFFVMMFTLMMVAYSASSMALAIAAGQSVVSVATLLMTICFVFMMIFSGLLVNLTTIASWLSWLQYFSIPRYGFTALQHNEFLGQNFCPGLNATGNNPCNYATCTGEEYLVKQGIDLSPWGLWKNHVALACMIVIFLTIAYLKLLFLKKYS
Experiment: cell-based
Where a name gives a salt, the structure may show the parent alone.
measurement-name: IC50 (µM)
Supply the numeric figure in µM, leaving out any unit text.

• Cc1nc2n(c(=O)c1CCN1CCC(c3noc4cc(F)ccc34)CC1)CCCC2O (centres unmarked) [Paliperidone, 9-hydroxy-risperidone] = 51

Task: Please give the measured IC50 for this compound: CN(C)CCCN1c2ccccc2Sc2ccc(Cl)cc21 [Chlorpromazine, chlorpromazine hydrochloride]
Result: 52.2

Task: Please give the measured IC50 for this compound: OCCOCCN1CCN(C2=Nc3ccccc3Sc3ccccc32)CC1
Result: 66.1

Task: Please give the measured IC50 for this compound: CN1CCN(C2=Nc3cc(Cl)ccc3Nc3ccccc32)CC1
Result: 42
